Biological target: dopamine transporter (DAT) (Rattus norvegicus, UniProt P23977)
Construct: P2 membrane pellets were prepared by differential centrifugation from rat striatum; from tissue; host or cells: rat striatum (P2 membrane pellet / P2 synaptosomes)
Sequence (P23977 whole entry): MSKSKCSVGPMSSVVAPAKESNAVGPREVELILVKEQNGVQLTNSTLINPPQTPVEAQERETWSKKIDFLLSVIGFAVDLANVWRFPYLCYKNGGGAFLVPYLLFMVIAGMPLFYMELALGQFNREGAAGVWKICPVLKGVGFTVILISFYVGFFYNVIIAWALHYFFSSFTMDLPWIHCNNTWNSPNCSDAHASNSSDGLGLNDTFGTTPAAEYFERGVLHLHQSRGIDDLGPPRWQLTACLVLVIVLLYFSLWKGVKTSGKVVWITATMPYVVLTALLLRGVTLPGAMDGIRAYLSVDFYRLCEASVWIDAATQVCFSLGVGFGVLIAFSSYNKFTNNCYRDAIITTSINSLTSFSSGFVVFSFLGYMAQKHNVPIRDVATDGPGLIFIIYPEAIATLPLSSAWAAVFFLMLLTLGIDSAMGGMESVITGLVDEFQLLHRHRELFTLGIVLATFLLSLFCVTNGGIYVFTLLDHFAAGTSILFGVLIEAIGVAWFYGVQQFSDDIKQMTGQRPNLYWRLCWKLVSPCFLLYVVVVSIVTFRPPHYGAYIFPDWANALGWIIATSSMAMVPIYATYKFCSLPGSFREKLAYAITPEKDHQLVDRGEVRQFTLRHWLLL
Test: Synaptosomal uptake of [3H]DA (inhibition of DA reuptake)
Type: biochemical
Conditions: Ki value (text, refers to Table 1 DA reuptake)
ASSAY_READOUT: Ki (µM)
The figure you give is taken to be in µM; do not add the unit.

Which measured Ki value corresponds to C=CCCC1N2CCC(CC2)C1(O)c1ccccc1 (stereo not shown) ?
31.2

###

Target: dopamine transporter (DAT) (Rattus norvegicus, UniProt P23977)
Construct: P2 membrane pellets were prepared by differential centrifugation from rat striatum; from tissue; host or cells: rat striatum (P2 membrane pellet / P2 synaptosomes)
Assay: Synaptosomal uptake of [3H]DA (inhibition of DA reuptake)
Type: biochemical
Conditions: Ki (nM) DA Reuptake, rat striatal synaptosomes; mean ± standard error or range of 2-3 experiments
ASSAY_READOUT: Ki (nM)
The figure you give is taken to be in nM; do not add the unit.

Guide cases for Ki, answers given:
CCCCC1C(c2ccc(C)cc2)C2CCN1CC2 (single isomer, unassigned; (-)) [(−)-13, 2-Butyl-3-(4-methylphenyl)quinuclidine] = 32
CCCCC1C(c2ccc(C)cc2)C2CCN1CC2 (single isomer, unassigned; (+)) [(+)-13, 2-Butyl-3-(4-methylphenyl)quinuclidine] = 354

Which measured Ki value corresponds to CCCCC1C(c2ccccc2)C2CCN1CC2 (racemic) [(±)-12, 2-Butyl-3-phenylquinuclidine] ?
237

Which measured Ki value corresponds to CCCCC1C(c2ccc(C)cc2)C2CCN1CC2 (racemic) [(±)-13, 2-Butyl-3-(4-methylphenyl)quinuclidine] ?
49
